Organism: Rattus norvegicus
testDescription: Amount of deuterium retained was reported after reincubation followed by normal workup in phenobarbital treated male rats with rac 8-D
Assay type: ADME, organism-based

compound: CC(=O)CC(c1ccccc1)c1c(O)oc2c(O)cccc2c1=O (centres undefined)
Deuterium retention (%): 58

compound: CC(=O)CC(c1ccccc1)c1c(O)oc2ccc(O)cc2c1=O (centres undefined)
Deuterium retention (%): 89

compound: CC(=O)CC(c1ccc(O)cc1)c1c(O)oc2ccccc2c1=O (centres undefined)
Deuterium retention (%): 91

compound: CC(=O)CC(c1ccccc1)c1c(O)oc2cc(O)ccc2c1=O (centres undefined)
Deuterium retention (%): 83

---

Organism: Rattus norvegicus
testDescription: Amount of deuterium retained was reported after reincubation followed by normal workup in phenobarbital treated male rats
Format: ADME, organism-based

compound: CC(=O)CC(c1ccccc1)c1c(O)oc2cc(O)ccc2c1=O (centres undefined)
Deuterium retention (%): 76
--
compound: CC(=O)CC(c1ccccc1)c1c(O)oc2ccc(O)cc2c1=O (centres undefined)
Deuterium retention (%): 65
--
compound: CC(=O)CC(c1ccccc1)c1c(O)oc2c(O)cccc2c1=O (centres undefined)
Deuterium retention (%): 83
--
compound: CC(=O)CC(c1ccc(O)cc1)c1c(O)oc2ccccc2c1=O (centres undefined)
Deuterium retention (%): 85

---

Species on record: Rattus norvegicus
testDescription: Amount of deuterium retained was reported after normal workup in rats
Type: ADME, organism-based

molecule: CC(=O)CC(c1ccc(O)cc1)c1c(O)oc2ccccc2c1=O (centres undefined)
Deuterium retention, %: 84
//
molecule: CC(=O)CC(c1ccccc1)c1c(O)oc2c(O)cccc2c1=O (centres undefined)
Deuterium retention, %: 82
//
molecule: CC(=O)CC(c1ccccc1)c1c(O)oc2ccc(O)cc2c1=O (centres undefined)
Deuterium retention, %: 66
//
molecule: CC(=O)CC(c1ccccc1)c1c(O)oc2cc(O)ccc2c1=O (centres undefined)
Deuterium retention, %: 76

---

Species: Rattus norvegicus
testDescription: Compound incubated with microsomal preparations from phenobarbital treated male rats with the substrate rac 8-D and the amount of deuterium retained was reported after normal workup
Assay type: ADME

molecule: CC(=O)CC(c1ccc(O)cc1)c1c(O)oc2ccccc2c1=O (centres undefined)
Deuterium retention (%): 92

molecule: CC(=O)CC(c1ccccc1)c1c(O)oc2c(O)cccc2c1=O (centres undefined)
Deuterium retention (%): 58

molecule: CC(=O)CC(c1ccccc1)c1c(O)oc2ccc(O)cc2c1=O (centres undefined)
Deuterium retention (%): 90

molecule: CC(=O)CC(c1ccccc1)c1c(O)oc2cc(O)ccc2c1=O (centres undefined)
Deuterium retention (%): 84

---

Organism: Rattus norvegicus
testDescription: Compound incubated with microsomal preparations from beta-naphthoflavone-treated male rats with the substrate rac 7-D and the amount of deuterium retained was reported after reincubation followed by normal workup
Assay type: ADME
parameterMeasured: Deuterium retention (%)

compound: CC(=O)CC(c1ccccc1)c1c(O)oc2ccc(O)cc2c1=O (centres undefined)
parameterMeasured: Deuterium retention
unitAbbrev: %
reading: 84

compound: CC(=O)CC(c1ccccc1)c1c(O)oc2cc(O)ccc2c1=O (centres undefined)
parameterMeasured: Deuterium retention
unitAbbrev: %
reading: 50

compound: CC(=O)CC(c1ccccc1)c1c(O)oc2c(O)cccc2c1=O (centres undefined)
parameterMeasured: Deuterium retention
unitAbbrev: %
reading: 76

compound: CC(=O)CC(c1ccc(O)cc1)c1c(O)oc2ccccc2c1=O (centres undefined)
parameterMeasured: Deuterium retention
unitAbbrev: %
reading: 83
